The reported numbers originate from patent US20110178143A1.

system: alpha2B receptor (Homo sapiens)
Construct: expressed in transfected cells; host or cells: NIH-3T3 cells
Sequence (P18089 1-450): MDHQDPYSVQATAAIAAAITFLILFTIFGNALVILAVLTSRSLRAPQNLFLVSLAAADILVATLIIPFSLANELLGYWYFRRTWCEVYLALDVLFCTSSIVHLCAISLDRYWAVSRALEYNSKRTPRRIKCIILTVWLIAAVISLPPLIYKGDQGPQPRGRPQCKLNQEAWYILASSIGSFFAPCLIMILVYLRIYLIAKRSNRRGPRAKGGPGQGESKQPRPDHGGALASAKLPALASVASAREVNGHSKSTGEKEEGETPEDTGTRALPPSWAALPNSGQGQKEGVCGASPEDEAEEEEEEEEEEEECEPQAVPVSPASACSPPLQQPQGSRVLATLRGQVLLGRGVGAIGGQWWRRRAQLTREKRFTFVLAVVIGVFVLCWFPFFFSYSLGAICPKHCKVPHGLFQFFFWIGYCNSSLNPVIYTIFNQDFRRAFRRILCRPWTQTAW
procedure-summary: Receptor Selection and Amplification Technology (RSAT) assay, alpha 2B
Assay type: cell-based

>  <molecule>
Cc1cccc2c1CCC2NC1=NCCN1 (centres unmarked)

>  <uom>
nM

>  <EC50>
5.7

$$$$
>  <molecule>
c1ccc2c(c1)CCC2NC1=NCCS1 (centres unmarked)

>  <uom>
nM

>  <EC50>
7.5

$$$$
>  <molecule>
Cc1cccc2c1CC[C@H]2NC1=NCCN1

>  <uom>
nM

>  <EC50>
33.4

$$$$
>  <molecule>
Cc1cccc2c1CC[C@@H]2NC1=NCCN1

>  <uom>
nM

>  <EC50>
4.5

$$$$
>  <molecule>
c1ccc2c(c1)CCC2NC1=NCCN1 (centres unmarked)

>  <uom>
nM

>  <EC50>
17

$$$$
>  <molecule>
Brc1cccc2c1CCC2NC1=NCCN1 (centres unmarked)

>  <uom>
nM

>  <EC50>
12.2

$$$$
>  <molecule>
c1ccc2c(c1)CC[C@@H]2NC1=NCCN1

>  <uom>
nM

>  <EC50>
43

$$$$
>  <molecule>
CC1CC(NC2=NCCS2)c2ccccc21 (centres unmarked)

>  <uom>
nM

>  <EC50>
10

$$$$
